Listed next: entries and their corresponding IC50.
- Tested on: lymphocytes (fresh spleen cells)
- protocol-summary: Lymphocyte proliferation assay (ConA-induced spleen cells)
- Format: cell-based, rat
- condition-description: Rattus norvegicus; inhibition of lymphocyte proliferation, 5 μg/mL ConA, 48 hours
attribute-measured: IC50 (nM)

compound: C=CC[C@@H]1/C=C(\C)C[C@H](C)C[C@H](OC)[C@H]2O[C@@](O)(C(=O)C(=O)N3CCCC[C@H]3C(=O)O[C@H](/C(C)=C/[C@@H]3CC[C@@H](O)[C@H](OC)C3)[C@H](C)[C@@H](O)CC1=O)[C@H](C)C[C@@H]2OC [Tacrolimus, reference compound]
readout-value: 504

compound: O=C(c1csc(-c2cnn3cccnc23)n1)N1CCC[C@H]1c1ccccc1
readout-value: 399

compound: O=C(c1csc(-c2cnn3cccnc23)n1)N1CCN(c2cccnc2)CC1
readout-value: 350

compound: O=C(c1nc(C(=O)N2CCCCC2C(=O)O)cs1)c1c[nH]c2ccccc12 (centres unmarked)
readout-value: 479

compound: O=C(NCc1cccnc1)c1csc(NC(=O)c2cnn3cccnc23)n1
readout-value: 439

compound: O=C(NCCc1ccccn1)c1csc(-c2cnn3cccnc23)n1
readout-value: 488

compound: O=C(c1nc(C(=O)N2C[C@H](O)C[C@H]2C(=O)O)cs1)c1c[nH]c2ccccc12
readout-value: 439

compound: CC(C)=CCC/C(C)=C/COC(=O)c1csc(-c2cnn3cccnc23)n1
readout-value: 487

compound: CC(C)=CCOC(=O)c1csc(-c2cnn3cccnc23)n1
readout-value: 438

compound: O=C(c1csc(-c2cnn3cccnc23)n1)N1CCC[C@H]1c1cc(F)ccc1F
readout-value: 436

compound: O=C(NCc1ccccc1)c1csc(-c2cnn3cccnc23)n1
readout-value: 263

compound: O=C(NCc1cccnc1)c1csc(C(=O)c2c[nH]c3ccccc23)n1
readout-value: 479

compound: CC(C)=CCC/C(C)=C/CNC(=O)c1csc(-c2cnn3cccnc23)n1
readout-value: 457

compound: O=C(NCc1cccnc1)c1csc(-c2cnn3cccnc23)n1
readout-value: 13.2

compound: O=C(Nc1cccnc1)c1csc(-c2cnn3cccnc23)n1
readout-value: 421

compound: O=C(OCc1cn(CCCCCCBr)nn1)c1csc(C(=O)c2c[nH]c3ccccc23)n1
readout-value: 468

compound: O=C(NC(CO)C(=O)O)c1csc(C(=O)c2c[nH]c3ccccc23)n1 (centres unmarked)
readout-value: 421

compound: O=C(c1csc(-c2cnn3cccnc23)n1)N1CCC[C@H]1c1ccncc1
readout-value: 410

compound: O=C(NCCc1cccnc1)c1csc(-c2cnn3cccnc23)n1
readout-value: 236

compound: O=C(c1csc(-c2cnn3cccnc23)n1)N1CCC[C@H]1c1cccnc1
readout-value: 210

----------
- protocol-summary: Pharmacokinetics and oral bioavailability in Wistar rats
- Format: in vivo
- condition-description: male, Wistar, plasma; rat, single oral administration 5 mg/kg

compound: O=C(NCc1cccnc1)c1csc(-c2cnn3cccnc23)n1 [IA-3]
result-unit: min
half-life: 125

----------
- System: lymphocytes (fresh spleen cells)
- protocol-summary: Lymphocyte proliferation assay (ConA-induced spleen cells)
- Assay type: cell-based, rat
- condition-description: lymphocyte proliferation induced with 5 μg/mL ConA, 48 hours; test concentration not given
Our labelling divides records by Inhibition rate (%) into ranges: LOW: < 50%; MID: ≥ 50% and < 60%; HIGH: ≥ 60%

smiles-data: CC(C)=CCC/C(C)=C/CNC(=O)c1csc(-c2cnn3cccnc23)n1
measured-on: lymphocytes (fresh spleen cells)
category-label: MID
//
smiles-data: O=C(NCc1ccccc1)c1csc(-c2cnn3cccnc23)n1
measured-on: lymphocytes (fresh spleen cells)
category-label: HIGH
//
smiles-data: CC(C)=CCC/C(C)=C/CNC(=O)c1csc(C(=O)c2c[nH]c3ccccc23)n1
measured-on: lymphocytes (fresh spleen cells)
category-label: LOW
//
smiles-data: O=C(NCc1cccnc1)c1csc(C(=O)c2c[nH]c3ccccc23)n1
measured-on: lymphocytes (fresh spleen cells)
category-label: MID
//
smiles-data: O=C(OCc1cn(CCc2ccccc2)nn1)c1csc(C(=O)c2c[nH]c3ccccc23)n1
measured-on: lymphocytes (fresh spleen cells)
category-label: LOW
//
smiles-data: O=C(NCc1ccc(F)cc1F)c1csc(C(=O)c2c[nH]c3ccccc23)n1
measured-on: lymphocytes (fresh spleen cells)
category-label: LOW

meta.source: patent US20230391783A1
